Organism: Rattus norvegicus
Experiment: DrugMatrix - Regimen: Daily Repeat
Type: toxicity, organism-based, Sprague-Dawley
Parameters: regimen Daily Repeat, gender Male, age 6-8 weeks
Conditions: in vivo, po, 0 mg/kg, 72 h, tissue Blood, route oral GAVAGE, dose level Control, time 3 day, […]
measurement.kind: LYMPHOCYTE (%)

CC[C@H](C)C(=O)O[C@H]1C[C@H](O)C=C2C=C[C@H](C)[C@H](CC[C@@H](O)C[C@@H](O)CC(=O)O)[C@H]21 = 94.67
CC[C@H](C)C(=O)O[C@H]1C[C@@H](C)C=C2C=C[C@H](C)[C@H](CC[C@@H]3C[C@@H](O)CC(=O)O3)[C@H]21 = 87
CC(CCc1ccc(O)cc1)NCCc1ccc(O)c(O)c1 (configuration not stated) = 82.1
CCn1cc(C(=O)O)c(=O)c2cc(F)c(N3CCNCC3)nc21 = 87.5
CC(C)Cc1ccc(CC(=O)O)cc1 = 82.67
NC[C@@H]1O[C@H](O[C@H]2[C@@H](O)[C@H](O[C@@H]3[C@@H](O)[C@H](N)C[C@H](N)[C@H]3O[C@H]3O[C@H](CN)[C@@H](O)[C@H](O)[C@H]3N)O[C@@H]2CO)[C@H](N)[C@@H](O)[C@@H]1O = 86.67
OCCN1CCN(CCCN2c3ccccc3Sc3ccc(C(F)(F)F)cc32)CC1 = 90.17

====

Measured HEMATOCRIT accompanies every entry in the list below.
Species: Rattus norvegicus
Assay: DrugMatrix - Regimen: Daily Repeat
Format: toxicity, organism-based, Sprague-Dawley
Design: regimen Daily Repeat, gender Male, age 6-8 weeks
Conditions: in vivo, po, 0 mg/kg, 72 h, tissue Blood, route oral GAVAGE, dose level Control, time 3 day, […]
measurement.kind: HEMATOCRIT (%)

CC[C@H](C)C(=O)O[C@H]1C[C@@H](C)C=C2C=C[C@H](C)[C@H](CC[C@@H]3C[C@@H](O)CC(=O)O3)[C@H]21 = 31.63
C#C[C@]1(O)CC[C@H]2[C@@H]3CCc4cc(O)ccc4[C@H]3CC[C@@]21C = 33.67
NC[C@@H]1O[C@H](O[C@H]2[C@@H](O)[C@H](O[C@@H]3[C@@H](O)[C@H](N)C[C@H](N)[C@H]3O[C@H]3O[C@H](CN)[C@@H](O)[C@H](O)[C@H]3N)O[C@@H]2CO)[C@H](N)[C@@H](O)[C@@H]1O = 32.87
CC(C)Cc1ccc(CC(=O)O)cc1 = 33.62
OCCN1CCN(CCCN2c3ccccc3Sc3ccc(C(F)(F)F)cc32)CC1 = 32.78
COc1ncnc(NS(=O)(=O)c2ccc(N)cc2)c1OC = 35.4

====

Organism: Rattus norvegicus
Test: DrugMatrix - Regimen: Daily Repeat
Format: toxicity, organism-based, Sprague-Dawley
Parameters: regimen Daily Repeat, gender Male, age 6-8 weeks
Conditions: in vivo, po, 1500 mg/kg, 72 h, tissue Blood, route oral GAVAGE, dose level High, time 3 day, vehicle .5 % CMC
Entries and their measured LYMPHOCYTE follow.
measurement.kind: LYMPHOCYTE

O=c1cc(-c2ccccc2)oc2ccc3ccccc3c12 = 82.2%
CCOC(=O)[C@H](CCc1ccccc1)N[C@@H](C)C(=O)N1CCC[C@H]1C(=O)O = 91%
C[C@@H](O)[C@H]1C(=O)N2C(C(=O)O)=C(S[C@@H]3CN[C@H](C(=O)N(C)C)C3)[C@H](C)[C@H]12 = 92.33%
CC(C)(Sc1cc(C(C)(C)C)c(O)c(C(C)(C)C)c1)Sc1cc(C(C)(C)C)c(O)c(C(C)(C)C)c1 = 88.33%
Nc1nc2c(c(=O)[nH]1)N(C=O)C(CNc1ccc(C(=O)N[C@@H](CCC(=O)O)C(=O)O)cc1)CN2 (stereo not given in full) = 86.33%

====

Species: Rattus norvegicus
Test: DrugMatrix - Regimen: Daily Repeat
Type: toxicity, organism-based, Sprague-Dawley
Design: regimen Daily Repeat, gender Male, age 6-8 weeks
Conditions: in vivo, po, 0.0007 mg/kg, 120 h, tissue Blood, route oral GAVAGE, dose level Low, time 5 day, vehicle .5 % CMC
measurement.kind: ABSOLUTE SEGMENTED NEUTROPHIL (cells/µL)

Clc1cc2c(cc1Cl)Oc1cc(Cl)c(Cl)cc1O2 [2,3,7,8-TETRACHLORODIBENZO-P-DIOXIN] = 1360

====

Species on record: Rattus norvegicus
Assay: DrugMatrix - Regimen: Daily Repeat
Assay type: toxicity, organism-based, Sprague-Dawley
Design: regimen Daily Repeat, gender Male, age 6-8 weeks
Settings: in vivo, po, 100 mg/kg, 120 h, tissue Plasma, route oral GAVAGE, dose level Low, time 5 day, vehicle .5 % CMC
Measured ASPARTATE AMINOTRANSFERASE values are reported for all entries that follow.
measurement.kind: ASPARTATE AMINOTRANSFERASE (u/L)

Nc1nc2c(c(=O)[nH]1)N(C=O)C(CNc1ccc(C(=O)N[C@@H](CCC(=O)O)C(=O)O)cc1)CN2 (some centres undefined) = 76
CC[C@]1(O)CC[C@H]2[C@@H]3CCC4=CCCC[C@@H]4[C@H]3CC[C@@]21C = 55
C#C[C@]1(O)CC[C@H]2[C@@H]3CCC4=Cc5oncc5C[C@]4(C)[C@H]3CC[C@@]21C = 88.67
CC=Cc1ccc(O)c(OC)c1 = 83.33

====

Organism: Rattus norvegicus
Experiment: DrugMatrix - Regimen: Daily Repeat
Assay type: toxicity, organism-based, Sprague-Dawley
Design: regimen Daily Repeat, gender Male, age 6-8 weeks
Details: in vivo, po, 0 mg/kg, 120 h, tissue Blood, route oral GAVAGE, dose level Control, time 5 day, vehicle 100 % WATER
measurement.kind: MEAN CORPUSCULAR HEMOGLOBIN (pg)

Nc1ccc(S(=O)(=O)Nc2nccs2)cc1 = 24.57
O=C(O)c1cccnc1 = 25.65
CCCCCCCCCCCCCCCC[n+]1ccccc1.[Br-] = 24.85
CC(C)(C)NC[C@H](O)COc1nsnc1N1CCOCC1 = 24.57
Cc1c(N(C)CS(=O)(=O)[O-])c(=O)n(-c2ccccc2)n1C.[Na+] [DIPYRONE SODIUM] = 23.15
CN1C2CCCC1CC(NC(=O)c1nn(C)c3ccccc13)C2 (stereo not drawn) = 24.57
CCOC(N)=O = 25.25
CCN[C@@H](C)Cc1cccc(C(F)(F)F)c1 = 23.92
O=C(O)c1cc(=O)c2c(OCC(O)COc3cccc4oc(C(=O)O)cc(=O)c34)cccc2o1 = 24.7
CCN(CC)CC#CCOC(=O)C(O)(c1ccccc1)C1CCCCC1 (stereo not drawn) = 23.65
OCCO = 24.97
CCCc1nn(C)c2c(=O)[nH]c(-c3cc(S(=O)(=O)N4CCN(C)CC4)ccc3OCC)nc12 = 24.97
CC[C@H]1OC(=O)[C@H](C)[C@@H](O[C@H]2C[C@@](C)(OC)[C@@H](O)[C@H](C)O2)[C@H](C)[C@@H](O[C@@H]2O[C@H](C)C[C@H](N(C)C)[C@H]2O)[C@](C)(O)C[C@@H](C)CN(C)[C@H](C)[C@@H](O)[C@]1(C)O = 25.73

====

Species: Rattus norvegicus
Experiment: DrugMatrix - Regimen: Daily Repeat
Assay type: toxicity, organism-based, Sprague-Dawley
Parameters: regimen Daily Repeat, gender Male, age 6-8 weeks
Conditions: in vivo, po, 0 mg/kg, 72 h, tissue Plasma, route oral GAVAGE, dose level Control, time 3 day, vehicle 100 % WATER
Listed here are compounds together with their documented ALANINE AMINOTRANSFERASE.
measurement.kind: ALANINE AMINOTRANSFERASE (u/L)

CC(C)(C)NC[C@H](O)COc1nsnc1N1CCOCC1 = 50.5
CC[C@H]1OC(=O)[C@H](C)[C@@H](O[C@H]2C[C@@](C)(OC)[C@@H](O)[C@H](C)O2)[C@H](C)[C@@H](O[C@@H]2O[C@H](C)C[C@H](N(C)C)[C@H]2O)[C@](C)(O)C[C@@H](C)CN(C)[C@H](C)[C@@H](O)[C@]1(C)O = 45.33
O=P1(N(CCCl)CCCl)NCCCO1 (configuration not stated) [CYCLOPHOSPHAMIDE ANHYDROUS] = 55.67
CCN[C@@H](C)Cc1cccc(C(F)(F)F)c1 = 36.83
CCN(CC)CC#CCOC(=O)C(O)(c1ccccc1)C1CCCCC1 (configuration not stated) = 48.67
CCCCCCCCCCCCCCCC[n+]1ccccc1.[Br-] = 66
CC[C@H]1OC(=O)[C@H](C)[C@@H](O[C@H]2C[C@@](C)(OC)[C@@H](O)[C@H](C)O2)[C@H](C)[C@@H](O[C@@H]2O[C@H](C)C[C@H](N(C)C)[C@H]2O)[C@](C)(OC)C[C@@H](C)C(=O)[C@H](C)[C@@H](O)[C@]1(C)O = 60.33
Cc1c(N(C)CS(=O)(=O)[O-])c(=O)n(-c2ccccc2)n1C.[Na+] [DIPYRONE SODIUM] = 49.67
OCCO = 54.17
Nc1ccc(S(=O)(=O)Nc2ncccn2)cc1 = 36.83
CCCc1nn(C)c2c(=O)[nH]c(-c3cc(S(=O)(=O)N4CCN(C)CC4)ccc3OCC)nc12 = 54.17
Nc1ccc(S(=O)(=O)Nc2nccs2)cc1 = 50.5
O=C(O)c1cc(=O)c2c(OCC(O)COc3cccc4oc(C(=O)O)cc(=O)c34)cccc2o1 = 41.17
CCOC(N)=O = 45.17
CN1C2CCCC1CC(NC(=O)c1nn(C)c3ccccc13)C2 (configuration not stated) = 50.5
CNS(=O)(=O)Cc1ccc2[nH]cc(CCN(C)C)c2c1 = 48.33
O=C(O)c1cccnc1 = 62.17
